Recorded values, source patent US20210395713A1.

# IC50 per record follows
target: T1, purified recombinant MHC II protein, allele DRB1*0701 (human); assay: MHC II competition binding assay;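 note: Peptide–MHC II complexes pulled from equilibrium mixtures onto ELISA plates carrying a conformation-specific anti-HLA-DR antibody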
T1 construct: bought from Benaroya Research Institute; also called MHC-II DR molecule
Use µM as the unit, but write only the number.

GVDFFMNEGTPVHAISSGKIV (synthetic mutated peptide of the lysostaphin catalytic domain; also called 41_46) [cluster 2 peptide with Ile41Glu/Lys46His] :: 14.3
GVDFFMNIGTPVKAISSGKIV [cluster 2 wild-type (C2WT) epitope peptide] :: 8.19
GVDFFMNIGTPVHAISSGKIV (synthetic mutated peptide of the lysostaphin catalytic domain; also called K46H) [cluster 2 peptide with Lys46His] :: 4.46

Let us move to another entry and its IC50.
Lab note: GVDFFMNEGTPVKAISSGKIV (synthetic mutated peptide of the lysostaphin catalytic domain; also called I41E) [cluster 2 peptide with Ile41Glu] gave IC50 of 7.51
